Test system: Aspergillus clavatus
Experiment Description: Antifungal activity against Aspergillus clavatus after 48 hr by agar streak dilution method
Assay type: functional
For each entry below, report its MIC value.
Give bare numbers, in µg/mL.

COc1ccc(C2SCC(=O)N2c2ccc(Nc3nc(Oc4ccc5c(C)cc(=O)oc5c4)nc(N(C)C)n3)cc2)cc1OC (stereo not given) = 100
Cc1cc(=O)oc2cc(Oc3nc(Nc4ccc(N5C(=O)C(CN6CCN(c7ccccn7)CC6)SC5c5ccc(Cl)cc5Cl)cc4)nc(N(C)C)n3)ccc12 (stereo not given) = 25
Cc1ccc(/C=N/c2ccc(Nc3nc(Oc4ccc5c(C)cc(=O)oc5c4)nc(N(C)C)n3)cc2)cc1 = 100
Cc1cc(=O)oc2cc(Oc3nc(Nc4ccc(/N=C/c5ccc([N+](=O)[O-])cc5)cc4)nc(N(C)C)n3)ccc12 = 100

Please examine the following record next.
Provide value of MIC for this record tested with Aspergillus clavatus: CC(=O)N1CCN(c2ccc(OCC3COC(Cn4ccnc4)(c4ccc(Cl)cc4Cl)O3)cc2)CC1 (stereo not given)
1

###

Kindly state MIC for each of the entries shown.
Tested on: Aspergillus niger
Experiment Description: Antifungal activity against Aspergillus niger after 48 hr by agar streak dilution method
Type: functional

Cc1cc(=O)oc2cc(Oc3nc(Nc4ccc(/N=C/c5ccc(O)cc5)cc4)nc(N(C)C)n3)ccc12 = 50 µg/mL
Cc1cc(=O)oc2cc(Oc3nc(Nc4ccc(N5C(=O)C(CN6CCN(c7ccccn7)CC6)SC5c5ccc(Cl)cc5Cl)cc4)nc(N(C)C)n3)ccc12 (stereo unspecified) = 50 µg/mL

Go through the list and state MIC for each entry.
1. COc1ccc(/C=N/c2ccc(Nc3nc(Oc4ccc5c(C)cc(=O)oc5c4)nc(N(C)C)n3)cc2)cc1OC
2. Cc1cc(=O)oc2cc(Oc3nc(Nc4ccc(/N=C/c5cccc(F)c5)cc4)nc(N(C)C)n3)ccc12
3. Cc1cc(=O)oc2cc(Oc3nc(Nc4ccc(N5C(=O)CSC5c5ccc(Cl)cc5)cc4)nc(N(C)C)n3)ccc12 (stereo unspecified)
4. Cc1cc(=O)oc2cc(Oc3nc(Nc4ccc(N5C(=O)CSC5c5ccccc5)cc4)nc(N(C)C)n3)ccc12 (stereo unspecified)

100 µg/mL
50 µg/mL
100 µg/mL
100 µg/mL

###

Test system: Proteus vulgaris
Experiment Description: Antibacterial activity against Proteus vulgaris after 24 hr by agar streak dilution method
Assay type: functional
Field: MIC. Provide a value for each of the compounds that follow.
Numbers only, in µg/mL.

Worked examples, 8 compounds total:
Cc1cc(=O)oc2cc(Oc3nc(Nc4ccc(/N=C/c5ccc(Cl)cc5Cl)cc4)nc(N(C)C)n3)ccc12 = 50
COc1ccc(C2SC(CN3CCN(c4ccccn4)CC3)C(=O)N2c2ccc(Nc3nc(Oc4ccc5c(C)cc(=O)oc5c4)nc(N(C)C)n3)cc2)cc1OC (stereo not given) = 100
O=C(O)c1cn(C2CC2)c2cc(N3CCNCC3)c(F)cc2c1=O [CIPROFLOXACIN] = 1
COc1ccc(/C=N/c2ccc(Nc3nc(Oc4ccc5c(C)cc(=O)oc5c4)nc(N(C)C)n3)cc2)cc1 = 50
Cc1cc(=O)oc2cc(Oc3nc(Nc4ccc(N5C(=O)CSC5c5ccccc5Br)cc4)nc(N(C)C)n3)ccc12 (stereo not given) = 50
COc1ccc(/C=N/c2ccc(Nc3nc(Oc4ccc5c(C)cc(=O)oc5c4)nc(N(C)C)n3)cc2)cc1OC = 100
Cc1cc(=O)oc2cc(Oc3nc(Nc4ccc(N5C(=O)CSC5c5ccccc5C(=O)O)cc4)nc(N(C)C)n3)ccc12 (stereo not given) = 100
Cc1ccc(C2SC(CN3CCN(c4ccccn4)CC3)C(=O)N2c2ccc(Nc3nc(Oc4ccc5c(C)cc(=O)oc5c4)nc(N(C)C)n3)cc2)cc1 (stereo not given) = 50

Items follow; give MIC for each.
1. Cc1cc(=O)oc2cc(Oc3nc(Nc4ccc(/N=C/c5ccccc5Br)cc4)nc(N(C)C)n3)ccc12
2. Cc1ccc(C2SCC(=O)N2c2ccc(Nc3nc(Oc4ccc5c(C)cc(=O)oc5c4)nc(N(C)C)n3)cc2)cc1 (stereo not given)
3. Cc1cc(=O)oc2cc(Oc3nc(Nc4ccc(N5C(=O)C(CN6CCN(c7ccccn7)CC6)SC5c5ccc(Cl)cc5)cc4)nc(N(C)C)n3)ccc12 (stereo not given)
4. COc1ccc(C2SCC(=O)N2c2ccc(Nc3nc(Oc4ccc5c(C)cc(=O)oc5c4)nc(N(C)C)n3)cc2)cc1 (stereo not given)
5. Cc1cc(=O)oc2cc(Oc3nc(Nc4ccc(/N=C/c5ccc(O)cc5O)cc4)nc(N(C)C)n3)ccc12

1. 100
2. 100
3. 12.5
4. 50
5. 50
